Hey, just so you know, these numbers are from the supplement of paper PMC11865577.

tested on: TO-3-N3-2 (biotin conjugate); experiment: pull-down binding Z-score (relative to library population); higher = stronger binding; details: RNA library: Library-2
Below, each entry is listed alongside its reported pull-down binding Z-score.
Output: the number by itself.

Field: example entries. Status: answers known.
| Residue string | Measured target | Recorded measurement |
| --- | --- | --- |
| GGCAGUUUGUAUGUAAAUAAACAUGCAUUCC [SHAPE_invivo_SARS-CoV-2_Motif_362] | TO-3-N3-2 (biotin conjugate) | -0.171 |
| CCUGAUGAAUCUGAGGCCAGG [hsa-mir-577] | TO-3-N3-2 (biotin conjugate) | 0.118 |
| AGGUAAAACCAACAGUGGUUGUUAAUGCAGCCAAUGUUUACCU | TO-3-N3-2 (biotin conjugate) | -0.615 |

For reference, reported pull-down binding Z-score for UAAACACGCUUGUUAAACAACUUAGCUCCAAUUUUGGUGCAAUUUCAAGUGUUUUA [SHAPE_invitro_SARS-CoV-2_Motif_443] stands at -0.221

Looking up ACAAGAGGGUGUGGUUGAUUAUGGUGCUAGAUUUUACUUUUACACCAGUAAAACAACUGUAGCGUCACUUAUCAACACACUUAACGAUCUAAAUGAAACUCUUGU , I see its pull-down binding Z-score listed as 0.984

For reference, reported pull-down binding Z-score for GCUUAUGGGGAUAUUGUGGUUGAUCUGUUCUAUCCAGAUGAC [hsa-mir-1261] stands at 0.0944

The recorded pull-down binding Z-score for entry GGCAUCUAGCACAGGCGGUAGAUGCU [hsa-mir-4486] equals -0.34

Please fill in: pull-down binding Z-score reported for ACCUUCCAAGGCUCAGAAGGU [hsa-mir-4650-1_4650-2] = -0.432

Record AGUCUCUGAAGAGAGCUGUGGACUGA [hsa-mir-6721] , field pull-down binding Z-score: 0.732

Reported pull-down binding Z-score ( CCUUGCACCUAAUAUGAUGGUAACAAACAAUACCUUCACACUCAAAGGCGGUGCACCAACAAAGGUUACUUUUGGUGAUGACACUGUGAUAGAAGUGCAAGG [SHAPE_invivo_SARS-CoV-2_Multi_7_ComplexLevel_1] ) = -0.454

pull-down binding Z-score recorded for this sequence, AACCAUACAGGUGUUGUUGGAGAAGGUU [DMSMaPseq_invitro_SARS-CoV-2_Motif_31] , is 0.125
